- TARGET DESC: human TLR7 (Homo sapiens)
- Construct: host or cells: HEK-Blue hTLR7 cells (HEK293-derived reporter line; that the line is stably transfected with the human TLR7 gene is own knowledge of the vendor's product)
- Sequence (Q9NYK1 27-1049): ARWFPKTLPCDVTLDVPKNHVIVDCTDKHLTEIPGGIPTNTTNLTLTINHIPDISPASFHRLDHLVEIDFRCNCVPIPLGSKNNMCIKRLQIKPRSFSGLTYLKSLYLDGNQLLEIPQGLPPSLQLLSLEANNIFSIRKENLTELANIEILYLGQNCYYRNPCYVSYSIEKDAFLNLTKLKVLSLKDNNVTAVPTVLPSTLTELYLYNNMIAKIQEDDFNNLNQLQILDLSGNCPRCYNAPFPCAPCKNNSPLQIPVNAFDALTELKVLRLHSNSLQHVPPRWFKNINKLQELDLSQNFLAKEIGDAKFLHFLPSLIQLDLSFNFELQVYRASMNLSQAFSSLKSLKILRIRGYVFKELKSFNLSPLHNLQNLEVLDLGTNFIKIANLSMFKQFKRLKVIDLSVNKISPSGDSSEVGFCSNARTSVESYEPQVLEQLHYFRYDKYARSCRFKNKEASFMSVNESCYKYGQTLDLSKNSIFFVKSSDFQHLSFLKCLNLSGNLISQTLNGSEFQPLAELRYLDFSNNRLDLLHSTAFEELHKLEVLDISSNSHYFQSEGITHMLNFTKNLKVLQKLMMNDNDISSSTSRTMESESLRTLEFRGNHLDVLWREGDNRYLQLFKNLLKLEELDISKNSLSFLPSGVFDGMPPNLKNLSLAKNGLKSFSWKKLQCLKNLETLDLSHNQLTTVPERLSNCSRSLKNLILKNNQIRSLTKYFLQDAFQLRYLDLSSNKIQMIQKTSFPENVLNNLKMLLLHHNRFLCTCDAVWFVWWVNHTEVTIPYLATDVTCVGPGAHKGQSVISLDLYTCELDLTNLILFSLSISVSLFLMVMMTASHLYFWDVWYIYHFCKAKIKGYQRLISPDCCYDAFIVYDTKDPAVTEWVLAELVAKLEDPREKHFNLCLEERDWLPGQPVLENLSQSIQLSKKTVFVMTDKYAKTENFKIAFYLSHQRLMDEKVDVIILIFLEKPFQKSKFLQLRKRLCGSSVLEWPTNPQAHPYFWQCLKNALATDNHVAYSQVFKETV
- EXPERIMENTAL PROTOCOL: Agonistic activity of compounds on HEK-Blue hTLR7 cells (QUANTI-Blue reporter, OD620)
- Assay type: cell-based
- APPLIED CONDITIONS: HEK-Blue hTLR7 cells; OD620 at which the activation effect reached the maximum
Is Emax at least 1 OD620? Then condition met. If not, condition not met.

smiles_record=CCCCc1nc2c(N)nc3cc(C4CCN(C)CC4)sc3c2n1CC1CCN(CCOC)CC1 assigned_category="condition not met"
smiles_record=CCCCc1nc2c(N)nc3cc(C)sc3c2n1CC1CCN(C)CC1 assigned_category="condition met"
smiles_record=CCCCc1nc2c(N)nc3cc(C)sc3c2n1CC1CCNCC1 assigned_category="condition met"
smiles_record=CCCCc1nc2c(N)nc3cc(C4CCOCC4)sc3c2n1CC1CCN(C)CC1 assigned_category="condition met"
smiles_record=CCCCc1nc2c(N)nc3ccsc3c2n1CCCCN assigned_category="condition met"
smiles_record=CCCCc1nc2c(N)nc3cc(C4CCN(C)CC4)sc3c2[nH]1 assigned_category="condition met"
smiles_record=CCCCc1nc2c(N)nc3ccsc3c2n1CC1CCN(C)CC1 assigned_category="condition met"
smiles_record=CCCCc1nc2c(N)nc3cc(C)sc3c2n1CC1CCN(CCOCCOCCOCCOCCOCCOCCOC)CC1 assigned_category="condition met"
smiles_record=CCCCc1nc2c(N)nc3cc(C4CCNCC4)sc3c2n1CC1CCN(CCOC)CC1 assigned_category="condition not met"
